target: human GLP-1 receptor (human, UniProt P43220 24-463); assay: cell-based or functional assay
Starred links: 1 amine or outer side, 2 acyl side, 3 side chain; linkers in the order of their positions; H or OH if unused. Non-standard residues stand in square brackets, D forms with d. Groups on a side chain read outwards from the residue. No end group written: not given here. *: point of attachment. C20 diacid = O=C(O)CCCCCCCCCCCCCCCCCCC(=O)*; C18 diacid = O=C(O)CCCCCCCCCCCCCCCCC(=O)*; γGlu = O=C(O)[C@H](CCC(=O)[*:2])N[*:1]; εLys = N[C@@H](CCCCN[*:1])C(=O)[*:2]; AEEA = NCCOCCOCC(=O)O; Aib = CC(C)(N)C(=O)O; Ahx = NCCCCCC(=O)O
Decide using EC50 hGLP1R 100% hP (CreLuc) alone. Strictly below 4 nM: class 1. Equal to or above 4 nM: class 0.

# binder, class
rows = [
    ("Y[Aib]EGTFTSDYSI[Aib]LEKQAE[Aib]AFVEWLIK([γGlu-γGlu-γGlu-γGlu-C18 diacid])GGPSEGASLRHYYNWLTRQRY-NH2 (also: TFA salt) [Compound 262]", "class 0"),
    ("Y[Aib]EGTFTSDYSI[Aib]LEKQAQ[Aib]AFVQWLIK([εLys-γGlu-γGlu-γGlu-γGlu-γGlu-C18 diacid])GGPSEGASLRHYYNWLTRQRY-NH2 (also: TFA salt) [Compound 267]", "class 1"),
    ("Y[Aib]EGTFTSDYSI[Aib]LEKQAQ[Aib]EFVEWLIK([AEEA-AEEA-γGlu-C18 diacid])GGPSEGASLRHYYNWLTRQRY-NH2 (also: TFA salt) [Compound 282]", "class 0"),
    ("Y[Aib]EGTFTSDYSI[Aib]LEKQAQ[Aib]AFVEWLIK([Ahx-γGlu-γGlu-γGlu-γGlu-γGlu-γGlu-C18 diacid])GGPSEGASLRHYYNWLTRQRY-NH2 (also: TFA salt) [Compound 303]", "class 0"),
    ("Y[Aib]EGTFTSDYSI[Aib]LEKQAQ[Aib]EFVEWLIK([γGlu-γGlu-γGlu-γGlu-C20 diacid])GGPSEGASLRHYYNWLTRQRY-NH2 (also: TFA salt) [Compound 271]", "class 0"),
    ("Y[Aib]EGTFTSDYSI[Aib]LEKQAQ[Aib]EFVEWLIK([γGlu-γGlu-γGlu-γGlu-C18 diacid])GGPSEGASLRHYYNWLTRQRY-NH2 (also: TFA salt) [Compound 276]", "class 0"),
    ("Y[Aib]EGTFTSDYSI[Aib]LEKQAQ[Aib]AFVEWLIK([Glu-Glu-Glu-Glu-C18 diacid])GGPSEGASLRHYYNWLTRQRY-NH2 (also: TFA salt) [Compound 291]", "class 1"),
    ("Y[Aib]EGTFTSDYSI[Aib]LEKQAQ[Aib]EFVEWLIK([AEEA-γGlu-γGlu-γGlu-C18 diacid])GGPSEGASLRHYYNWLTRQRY-NH2 (also: TFA salt) [Compound 274]", "class 0"),
    ("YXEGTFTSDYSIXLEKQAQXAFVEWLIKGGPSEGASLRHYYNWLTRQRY (Aib at 2, 13, 20; K28 side chain acylated with C18DA-gGlu-Glu-gGlu-gGlu-gGlu-gGlu-eLys (so in the source); C-terminal amide (NH2)) [Compound 293]", "class 0"),
    ("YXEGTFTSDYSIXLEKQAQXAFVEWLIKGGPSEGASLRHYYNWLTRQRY (Aib at 2, 13, 20; K28 side chain acylated with C20DA-gGlu-gGlu-gGlu-gGlu-gGlu; C-terminal amide (NH2)) [Compound 289]", "class 1"),
    ("Y[Aib]EGTFTSDYSI[Aib]LEKQAQ[Aib]EFVEWLIK([Ahx-γGlu-γGlu-γGlu-γGlu-γGlu-γGlu-C18 diacid])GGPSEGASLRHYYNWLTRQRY-NH2 (also: TFA salt) [Compound 279]", "class 0"),
    ("Y[Aib]EGTFTSDYSI[Aib]LEKQAQ[Aib]AFVQWLIK([Glu-Glu-Glu-Glu-C18 diacid])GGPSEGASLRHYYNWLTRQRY-NH2 (also: TFA salt) [Compound 281]", "class 1"),
    ("Y[Aib]EGTFTSDYSI[Aib]LEKQAQ[Aib]AFVEWLIK([Glu-Glu-Glu-Glu-Glu-Glu-C18 diacid])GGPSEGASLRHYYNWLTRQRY-NH2 (also: TFA salt) [Compound 302]", "class 0"),
]
